test: log P determination by HPLC (EEC Directive 79/831 Annex V.A8, gradient method); type: physicochemical; conditions: HPLC, gradient method, acetonitrile/0.1% strength aqueous phosphoric acid or formic acid; read-out: Physical data: log P
Assign labels as follows, please: MET for chromatographic logP below 4; NOT MET for chromatographic logP equal to or exceeding 4.

>  <compound>
O=C(/C=C/c1c(-c2ccc(F)cc2Cl)nc2sc(C(F)(F)F)nn12)NC1CC1 [Example 0585]

>  <class label>
MET

$$$$
>  <compound>
CC(C)NC(=O)/C=C/c1c(-c2ccccc2F)nc2sc(C(F)(F)F)nn12 [Example 0442]

>  <class label>
MET

$$$$
>  <compound>
O=C(/C=C/c1c(-c2ccc(Cl)cc2Cl)nc2sc(C(F)(F)F)nn12)Nc1ccc(F)cc1 [Example 0553]

>  <class label>
NOT MET

$$$$
>  <compound>
CC(NC(=O)/C=C/c1c(-c2cccc(C(F)(F)F)c2)nc2sc(C(F)(F)F)nn12)c1ccccn1 (centres unmarked) [Example 0416]

>  <class label>
MET

$$$$

QUERY: Strictly below 4: is that where chromatographic logP of CCC(C)NC(=O)/C=C/c1c(-c2ccccc2C)nc2sc(C(F)(F)F)nn12 (centres unmarked) [Example 0238] sits?
RESULT: MET
